Sourced from patent US4199570A

# Test system: Proteus vulgaris TB-615
# PROTOCOL_NOTES: MIC (Table 2)
# Assay type: cell-based
# SETTINGS: TB615, tobramycin resistant strain, read-out: Minimum Inhibitory Concentration (MIC)
Entries annotated with measured MIC
Give just the numeric value; µg/mL need not be written.

Examples from the recorded data:
COMPOUND	UNIT_OF_MEASURE	MIC
NC[C@H]1O[C@H](O[C@H]2[C@H](O)[C@@H](O[C@H]3O[C@H](CO)[C@@H](O)[C@H](N)[C@H]3O)[C@H](N)C[C@@H]2N)[C@H](O)[C@@H](O)[C@@H]1O [KM-A, kanamycin A]	µg/mL	100
NC[C@H]1O[C@H](O[C@H]2[C@H](O)[C@@H](O[C@H]3O[C@H](CO)[C@@H](O)[C@H](N)[C@H]3O)[C@H](NC(=O)C3(O)CNC3)C[C@@H]2N)[C@H](O)[C@@H](O)[C@@H]1O [Comp. (2)]	µg/mL	6.25
NC[C@H]1O[C@H](O[C@H]2[C@H](O)[C@@H](O[C@H]3O[C@H](CO)[C@@H](O)[C@H](N)[C@H]3O)[C@H](NC(=O)C3(O)CNC3)C[C@@H]2N)[C@H](N)C[C@@H]1O [Comp. (1)]	µg/mL	6.25

Could you now consider this next compound?
Return reported MIC; argument: NC[C@H]1O[C@H](O[C@H]2[C@H](O)[C@@H](O[C@H]3O[C@H](CO)[C@@H](O)[C@H](N)[C@H]3O)[C@H](N)C[C@@H]2N)[C@H](N)C[C@@H]1O [TOB, tobramycin]
50
